- assay remarks: Maximum solubility of ticagrelor in HPβCD solution without heat
- Type: physicochemical
- applied conditions: HPβCD solution 22.5% w/w, aqueous with cosolvent or surfactant or cyclodextrin, HPβCD 22.5% w/W, read-out: Ticagrelor mg/ml (maximum solubility)
quantity name: solubility (mg/mL)
Write the value in mg/mL as a bare number.

Query block: Find the measured solubility of CCCSc1nc(N[C@@H]2C[C@H]2c2ccc(F)c(F)c2)c2nnn([C@@H]3C[C@H](OCCO)[C@@H](O)[C@H]3O)c2n1 and report it.
Result block: 5
